Values compiled from the supplement of paper PMC12042874.

- PROCEDURE_DETAILS: amyloid nucleation score (Sup35N fusion, yeast selection) (log enrichment); library NNK2; higher = more nucleation; inactive = no reads after selection;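 further: zero at mode of non-aggregating sequences after 7 days selection at 30°C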

SUBSTANCE: RRTICCCSIVCGRGNGSLDL
amyloid nucleation score: 6.26
//
SUBSTANCE: CGNPFGLSTHFNYLRRMPWE
amyloid nucleation score: 0.116
//
SUBSTANCE: RRQRWKRLTNF
amyloid nucleation score: inactive
//
SUBSTANCE: YELHRNAIPRRRSQDSL
amyloid nucleation score: -0.81
//
SUBSTANCE: CPLNLPTLGRLATEKRAWG
amyloid nucleation score: -0.177
//
SUBSTANCE: SHLCQLLDDAGLTEQNNSSG
amyloid nucleation score: 0.234
//
SUBSTANCE: KHIDVRSNVWTRPHSKWLWS
amyloid nucleation score: 0.403
//
SUBSTANCE: RRISLLFTYYVRQSLSCLIV
amyloid nucleation score: 4.94
//
SUBSTANCE: LGRIHYNLFYVYV
amyloid nucleation score: 2.27
//
SUBSTANCE: RILFWSYA
amyloid nucleation score: -0.407
//
SUBSTANCE: TLAFVNNYDLRLELDRIEVP
amyloid nucleation score: inactive
//
SUBSTANCE: GDVGAVRVSCVCWLVLVKRG
amyloid nucleation score: 0.066
//
SUBSTANCE: NGGDRVLSFDIIIAGSLVAK
amyloid nucleation score: -0.354
//
SUBSTANCE: IQGPIVEFTISIRSSSRRHW
amyloid nucleation score: 3.1
//
SUBSTANCE: VWWSEVTAVSNCQRVSYARP
amyloid nucleation score: 2.94
//
SUBSTANCE: IIENDICHWSDICMEDLMDW
amyloid nucleation score: 0.186
//
SUBSTANCE: FNAERFLQSIEMVWWDKGFL
amyloid nucleation score: -1.53
//
SUBSTANCE: ELKVMGYMCPL
amyloid nucleation score: 0.801
//
SUBSTANCE: IRKGSHGSKMIEPVAMRSAC
amyloid nucleation score: 4.88
//
SUBSTANCE: ATLNVLDPHFYNMY
amyloid nucleation score: -0.691
//
SUBSTANCE: NFLRML
amyloid nucleation score: -0.139
//
SUBSTANCE: CVCDLCVPWVLNFGR
amyloid nucleation score: 8.91
//
SUBSTANCE: FFLGANGINALQNRSYIQPG
amyloid nucleation score: 0.007
//
SUBSTANCE: VVHGIETIIVDPDRALVGDG
amyloid nucleation score: -0.356
//
SUBSTANCE: CAFYDYGKALPRGNFRLSKM
amyloid nucleation score: -0.208
//
SUBSTANCE: YNRRLYRIACVGIVNVNGVG
amyloid nucleation score: 5.9
//
SUBSTANCE: GIIISRSNKLFFVKCCNN
amyloid nucleation score: 1.7
//
SUBSTANCE: NICELPITHKVGSWV
amyloid nucleation score: 0.518
//
SUBSTANCE: TEILILMIGLIAGLYCEIRF
amyloid nucleation score: -0.231
//
SUBSTANCE: WLCVRNVLMCQW
amyloid nucleation score: 7.04
//
SUBSTANCE: EAYVHGMR
amyloid nucleation score: 1.07
//
SUBSTANCE: SVYMPSVCNKLFFRGCGYGF
amyloid nucleation score: 3.04
//
SUBSTANCE: FCWLCFIRSEV
amyloid nucleation score: 0.554
//
SUBSTANCE: RLSPPRNWLVRRRRIFNGLL
amyloid nucleation score: -0.757
//
SUBSTANCE: NIVVPRRL
amyloid nucleation score: 2.53
//
SUBSTANCE: STYSIIYV
amyloid nucleation score: 0.831
//
SUBSTANCE: RGYFPFYNR
amyloid nucleation score: -0.907
